# Organism: Rattus norvegicus
# Procedure Summary: Open TG-GATES - Regimen: Daily Repeat
# Assay type: toxicity, organism-based, Sprague-Dawley
# Parameters: regimen Daily Repeat, gender Male, age 6 weeks
# Protocol Conditions: in vivo, po, 0 mg/kg, […], tissue Blood, route gavage, dose level Control, time 7 day
Quantity Name: PT
A bare number is not enough; add the unit after it.

Look over these answered cases.
| Compound | Reported Result |
| --- | --- |
| Cn1cnc([N+](=O)[O-])c1Sc1ncnc2nc[nH]c12 [AZATHIOPRINE] | 15.8 s |
| Cc1cnc(NC(=O)C2=C(O)c3ccccc3S(=O)(=O)N2C)s1 [MELOXICAM] | 11.9 s |
| O=P1(N(CCCl)CCCl)NCCCO1 (stereo not given) [CYCLOPHOSPHAMIDE ANHYDROUS] | 16.8 s |

Please state, for each entry, its recorded PT.
1. Cn1c(=O)c2c(ncn2C)n(C)c1=O [CAFFEINE]
2. Cc1cccc(Nc2cc(Cl)nc(SCC(=O)O)n2)c1C [PIRINIXIC ACID]
3. O=C1NC(=O)C(c2ccccc2)(c2ccccc2)N1 [PHENYTOIN]
4. CS(=O)(=O)Nc1ccc([N+](=O)[O-])cc1Oc1ccccc1 [NIMESULIDE]

15.4 s
12.3 s
16 s
11.3 s

Provide PT for all items below, preserving their order.
1. COc1ccc(Cl)cc1C(=O)NCCc1ccc(S(=O)(=O)NC(=O)NC2CCCCC2)cc1 [GLYBURIDE]
2. C=CCO [ALLYL ALCOHOL]
3. COc1ccc(O)c(C(C)(C)C)c1.COc1ccc(O)cc1C(C)(C)C [BUTYLATED HYDROXYANISOLE]

12.4 s
11.9 s
12.2 s

* * *

# Organism: Rattus norvegicus
# Procedure Summary: Open TG-GATES - Regimen: Single
# Assay type: toxicity, organism-based, Sprague-Dawley
# Set-up: regimen Single, gender Male, age 6 weeks
# Protocol Conditions: in vivo, po, 0 mg/kg, 6 h, tissue Plasma, route gavage, dose level Control
Quantity Name: RALB (g/dL)
Answers are plain numbers, in g/dL.

| Compound | RALB, g/dL |
| --- | --- |
| COc1ccc(O)c(C(C)(C)C)c1.COc1ccc(O)cc1C(C)(C)C [BUTYLATED HYDROXYANISOLE] | 2.6 |

// for each compound in input: emit RALB
1. CS(=O)(=O)Nc1ccc([N+](=O)[O-])cc1Oc1ccccc1 [NIMESULIDE]
2. COc1ccc(Cl)cc1C(=O)NCCc1ccc(S(=O)(=O)NC(=O)NC2CCCCC2)cc1 [GLYBURIDE]
3. C=CCO [ALLYL ALCOHOL]
4. Cn1cnc([N+](=O)[O-])c1Sc1ncnc2nc[nH]c12 [AZATHIOPRINE]
5. Cc1cnc(NC(=O)C2=C(O)c3ccccc3S(=O)(=O)N2C)s1 [MELOXICAM]

3.7
3.5
3.4
3.1
3.3

Please go through the list and note RALB for each compound.
1. O=C1CN(/N=C/c2ccc(-c3ccc([N+](=O)[O-])cc3)o2)C(O)=N1 [DANTROLENE]
2. S=C=Nc1cccc2ccccc12 [1-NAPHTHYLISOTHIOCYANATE]
3. CNCCC(Oc1ccc(C(F)(F)F)cc1)c1ccccc1.Cl (stereo unspecified) [FLUOXETINE HYDROCHLORIDE]
4. O=C1NC(=O)C(c2ccccc2)(c2ccccc2)N1 [PHENYTOIN]
5. Cc1cccc(Nc2cc(Cl)nc(SCC(=O)O)n2)c1C [PIRINIXIC ACID]

1. 3.5
2. 3.5
3. 3.8
4. 2.5
5. 2.5
